- tested target: T1, PADI4_R394A (human, UniProt Q9UM07 1-663, R394A)
- T1 construct: human PADI4, residues 1-663, single substitution; source: E. coli BL21-DE3, purified (Ni-NTA, S200 SEC), as told for the wild type
- T1 sequence (Q9UM07 whole entry R394A, the tested form may be a part): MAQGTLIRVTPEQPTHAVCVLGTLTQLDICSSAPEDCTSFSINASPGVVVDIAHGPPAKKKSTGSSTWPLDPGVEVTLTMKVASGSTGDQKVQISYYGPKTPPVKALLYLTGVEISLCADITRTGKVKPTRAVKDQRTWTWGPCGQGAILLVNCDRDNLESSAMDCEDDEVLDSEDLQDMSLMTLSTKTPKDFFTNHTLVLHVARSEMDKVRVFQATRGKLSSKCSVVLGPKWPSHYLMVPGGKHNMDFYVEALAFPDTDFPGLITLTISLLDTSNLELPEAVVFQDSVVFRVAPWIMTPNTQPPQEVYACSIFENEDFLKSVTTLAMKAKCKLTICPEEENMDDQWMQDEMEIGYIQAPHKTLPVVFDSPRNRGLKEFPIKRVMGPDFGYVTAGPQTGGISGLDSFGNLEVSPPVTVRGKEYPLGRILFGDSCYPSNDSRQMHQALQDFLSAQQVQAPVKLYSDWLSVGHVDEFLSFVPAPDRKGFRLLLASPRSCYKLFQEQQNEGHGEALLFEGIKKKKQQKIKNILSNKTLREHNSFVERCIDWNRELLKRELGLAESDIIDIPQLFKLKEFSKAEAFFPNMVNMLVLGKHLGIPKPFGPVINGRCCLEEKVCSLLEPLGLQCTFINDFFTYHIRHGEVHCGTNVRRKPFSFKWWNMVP
- assay overview: SPR; single cycle kinetics; biotinylated PADI4 (wild type or single-residue variant) captured on a Biotin CAPture chip, peptide or peptide analogue as analyte; 50 mM HEPES pH 7.5, 150 mM NaCl, 2 mM DTT, 0.05% Tween-20, 0.1% DMSO; 25 °C; CaCl2 concentration not told for these runs
- measurement context: both partners purified
Bridge positions count the residues as written; N and C are the ends. Square brackets hold non-standard residues; d marks the D form.
parameter measured: Kd (nM)
Entry rule: numbers only, all in nM.

[Q] So what's the measured Kd for this one? {CH2CO}-[dY]RDHHYRHPKYCG-NH2 (thioether N-12, cyclic peptide from RaPID selection 1 (10 mM CaCl2); source: synthetic peptide (Fmoc solid-phase synthesis, HPLC purified)) [PADI4_3]
[A] 8
